- System: Acinetobacter baumannii
- protocol_text: Potentiation of colistin-induced antibacterial activity against Acinetobacter baumannii ATCC 15308 assessed as colistin MIC at 50 uM incubated for 20 hrs by susceptibility testing (reference value: 0.25 to 0.5 ug/ml)
- Assay type: functional
Kindly supply the reported MIC values for the records listed here.
Numbers only, in µg/mL.

Recorded results for 2 compounds are shown here.
>  <compound_structure_string>
CCCCCCCCCc1ccccc1C(=O)NS(=O)(=O)C1CC1

>  <endpoint_label>
MIC

>  <result>
0.125

$$$$
>  <compound_structure_string>
CCCCCCCCCc1ccccc1C(=O)NS(=O)(=O)c1ccc([N+](=O)[O-])cc1

>  <endpoint_label>
MIC

>  <result>
0.5

$$$$

Hi! Can you tell me MIC for each of these compounds?
1. CCCCCCCCC/C=C\C(=O)O
2. CCCCCCCCCc1ccccc1C(=O)NS(=O)(=O)c1ccccc1Br
3. CCCCCCCCCc1ccccc1C(=O)NS(=O)(=O)c1ccc(Cl)cc1
4. CCCCCCCCCc1ccccc1C(=O)NS(=O)(=O)c1ccccc1F

1: 0.125; 2: 0.5; 3: 1; 4: 0.25

Consider the following items and state reported MIC for each.
1. CCCCCCCCCc1ccccc1C(=O)NS(=O)(=O)c1cccc(Br)c1
2. CCCCCCCCCc1ccccc1C(=O)NS(=O)(=O)c1ccc(OC)cc1
3. CCCCCCCCCc1ccccc1C(=O)NS(=O)(=O)c1cccc(F)c1
4. CCCCCCCCCc1ccccc1C(=O)NS(=O)(=O)c1ccc(F)cc1
5. CCCCCCCCCc1ccccc1C(=O)NS(=O)(=O)c1ccccc1

1
0.25
0.25
0.25
0.25
